# System: muscle cell C2C12
# assay_explanation: Glucose uptake in vitro (fluorescent glucose analog 2-NBDG)
# Assay type: cell-based, mouse
# stated_conditions: C2C12, 1 microM, 30 min treatment, mean±SEM of three experiments
Reported Glucose uptake (% to control) values for a set of molecules

molecule	Glucose uptake (% to control)
Cc1c[nH]c(=O)[nH]c1=O	110 ± 3.2 % to control
Cc1ccc(CNc2ncnc3nc[nH]c23)cc1	114 ± 9.2 % to control
Oc1ncnc2nc[nH]c12 [6-hydroxypurine]	109 ± 2.2 % to control
Oc1nc(NC2CCCCC2)nc2nc[nH]c12 [2-cyclohexylamino-6-hydroxypurine]	108 ± 2.1 % to control

----------
# Tested on: muscle cell C2C12
# assay_explanation: Glucose uptake in vitro (fluorescent glucose analog 2-NBDG)
# Type: cell-based, mouse
# stated_conditions: C2C12, 100 microM, 30 min treatment, mean±SEM of three experiments
Reported Glucose uptake (% to control) values for a set of molecules
attribute_measured: Glucose uptake (% to control)

molecule	attribute_measured	experimental_value
Cc1ccc(CNc2ncnc3nc[nH]c23)cc1	Glucose uptake (% to control)	281 ± 11.5 % to control
Oc1nc(NC2CCCCC2)nc2nc[nH]c12 [2-cyclohexylamino-6-hydroxypurine]	Glucose uptake (% to control)	251 ± 16.2 % to control
Oc1ncnc2nc[nH]c12 [6-hydroxypurine]	Glucose uptake (% to control)	289 ± 21.4 % to control
Cc1c[nH]c(=O)[nH]c1=O	Glucose uptake (% to control)	215 ± 18.2 % to control

----------
# Tested on: AMPK
# assay_explanation: AMPK activation assay (western blot phospho-AMPK Thr172) in C2C12
# Format: cell-based, mouse
# stated_conditions: C2C12 cells, 200 microM, 30 min treatment
# Experimental: Effects of compounds on AMPK activation were analyzed in mouse muscle cell C2C12, mouse fibroblast 3T3-L1 and human hepatocyte Hep G2. […] Immunoreactive bands were detected by enhanced chemiluminescence (ECL; Pierce, Rockford, Ill., USA) and recorded using Kodakfilm (Rochester, N.Y., USA). The detected signals were scanned and then quantified by using TotalLab Quant software (TotalLab).

compound	tgt	AMPK activation (% to control) C2C12
Oc1nc(NCc2ccccc2)c2[nH]cnc2n1 [Example 2-hydroxy-6-benzylaminopurine, 2-hydroxy-6-benzylaminopurine]	AMPK	356 % to control
CCCCCCNc1ncnc2nc[nH]c12 [Example 6-hexylaminopurine, 6-hexylaminopurine]	AMPK	359 % to control
Sc1ncnc2nc[nH]c12 [Example 6-mercaptopurine, 6-mercaptopurine]	AMPK	289 % to control
O=c1[nH]cc(F)c(=O)[nH]1 [Example 5-fluorouracil, 5-fluorouracil]	AMPK	318 % to control
Oc1nc(S)c2[nH]cnc2n1 [Example 2-hydroxy-6-mercaptopurine, 2-hydroxy-6-mercaptopurine]	AMPK	251 % to control
Oc1nc(Cl)nc2nc[nH]c12 [Example 2-chloro-6-hydroxypurine, 2-chloro-6-hydroxypurine]	AMPK	331 % to control
Nc1nc(Br)nc2nc[nH]c12 [Example 2-bromoadenine, 2-bromoadenine]	AMPK	349 % to control

----------
Reported Glucose uptake (% to control) values for a set of molecules
# Tested on: muscle cell C2C12
# assay_explanation: Glucose uptake in vitro (fluorescent glucose analog 2-NBDG)
# Type: cell-based, mouse
# stated_conditions: C2C12, 10 microM, 30 min treatment, mean±SEM of three experiments

molecule	Glucose uptake (% to control)
Cc1ccc(CNc2ncnc3nc[nH]c23)cc1	205 ± 14.6 % to control
Oc1ncnc2nc[nH]c12 [6-hydroxypurine]	242 ± 23.7 % to control
Cc1c[nH]c(=O)[nH]c1=O	167 ± 15.1 % to control
Oc1nc(NC2CCCCC2)nc2nc[nH]c12 [2-cyclohexylamino-6-hydroxypurine]	195 ± 11.9 % to control
